Catalogue of LC50 values
- Test system: SK-BR-3
- TEST NAME: SRB colorimetric assay of cell growth and viability, SK-BR-3
- Format: cell-based, human
- CONDITION: 48 hours exposure, SRB
Where a SMILES comes first, the peptide text is derived from it. Bridges are numbered along the chain shown (N, C = ends). [ ]: non-standard residue; d: D form. The star is where a group is joined. d(aIle) = CC[C@H](C)[C@@H](N)C(=O)O; d(aThr) = C[C@@H](O)[C@@H](N)C(=O)O; Hexanoyl(5-Me) = CC(C)CCCC(=O)*; Orn = NCCC[C@H](N)C(=O)O; Dha = C=C(N)C(=O)O
Entry rule: numbers only, all in nM.

A selection of reference data follows.
# COMPOUND, UNIT SPEC, LC50
measured = [
    ("C=C1NC(=O)[C@H](Cc2ccccc2)NC(=O)[C@@H](C(C)C)NC(=O)[C@@H]([C@@H](C)CC)NC(=O)[C@H](NC(=O)[C@H](NC(=O)[C@H](CCCN)NC(=O)[C@H]2CCCN2C(=O)[C@H](NC(=O)[C@@H](NC(=O)[C@@H](NC(=O)[C@H](NC(=O)CCCC(C)C)C(C)C)[C@@H](C)O)C(C)C)C(C)C)[C@@H](C)CC)[C@@H](C)OC(=O)[C@H](C(C)C)NC1=O [Compound 67, [Dha^2]-KF] ({Hexanoyl(5-Me)}-[dV]TV[dV][dP][Orn][d(aIle)][d(aThr)][d(aIle)][dV]F[Dha]V; ester 8-C)", "nM", 2210),
    ("C/C=C1\\NC(=O)[C@H](Cc2ccc(Cl)c(Cl)c2)NC(=O)[C@@H](C(C)C)NC(=O)[C@@H]([C@@H](C)CC)NC(=O)[C@H](NC(=O)[C@H](NC(=O)[C@H](CCCN)NC(=O)[C@H]2CCCN2C(=O)[C@H](NC(=O)[C@@H](NC(=O)[C@@H](NC(=O)[C@H](NC(=O)CC[C@@H](C)CC)C(C)C)[C@@H](C)O)C(C)C)C(C)C)[C@@H](C)CC)[C@@H](C)OC(=O)[C@H](C(C)C)NC1=O [Compound 70, [Phe(3,4-Cl2)^3, (4S)-MeHex^14]-KF]", "nM", 299),
    ("C/C=C1\\NC(=O)[C@H](Cc2ccccc2)NC(=O)[C@@H](C(C)C)NC(=O)[C@@H]([C@@H](C)CC)NC(=O)[C@H](NC(=O)[C@H](NC(=O)[C@H](CCCNC(=O)C(F)(F)F)NC(=O)[C@H]2CCCN2C(=O)[C@H](NC(=O)[C@@H](NC(=O)[C@@H](NC(=O)[C@H](NC(=O)CC[C@@H](C)CC)C(C)C)[C@@H](C)O)C(C)C)C(C)C)[C@@H](C)CC)[C@@H](C)OC(=O)[C@H](C(C)C)NC1=O [Compound 96]", "nM", 560),
]

Next:
stdin: Please look at this compound and report its LC50: C/C=C1\NC(=O)[C@H](Cc2ccc([N+](=O)[O-])cc2)NC(=O)[C@@H](C(C)C)NC(=O)[C@@H]([C@@H](C)CC)NC(=O)[C@H](NC(=O)[C@H](NC(=O)[C@H](CCCN)NC(=O)[C@H]2CCCN2C(=O)[C@H](NC(=O)[C@@H](NC(=O)[C@@H](NC(=O)[C@H](NC(=O)CC[C@@H](C)CC)C(C)C)[C@@H](C)O)C(C)C)C(C)C)[C@@H](C)CC)[C@@H](C)OC(=O)[C@H](C(C)C)NC1=O [Compound 73, [Phe(4-NO2)^3, (4S)-MeHex^14]-KF]
stdout: 574

----------
- Tested on: SK-BR-3
- TEST NAME: SRB colorimetric assay of cell growth and viability, SK-BR-3
- Type: cell-based, human
- CONDITION: 48 hours exposure
Where a SMILES comes first, the peptide text is derived from it. Bridges are numbered along the chain shown (N, C = ends). [ ]: non-standard residue; d: D form. The star is where a group is joined. d(aIle) = CC[C@H](C)[C@@H](N)C(=O)O; d(aThr) = C[C@@H](O)[C@@H](N)C(=O)O; Hexanoyl(5-Me) = CC(C)CCCC(=O)*; Orn = NCCC[C@H](N)C(=O)O; Dhb = C/C=C(\N)C(=O)O
MEASUREMENT LABEL: GI50 (nM)
Entry rule: numbers only, all in nM.

A selection of reference data follows.
# COMPOUND, GI50 (nM)
data = [
    ("C/C=C1\\NC(=O)[C@H](Cc2ccccc2)NC(=O)[C@@H](C(C)C)NC(=O)[C@@H]([C@@H](C)CC)NC(=O)[C@H](NC(=O)[C@H](NC(=O)[C@H](CCCN)NC(=O)[C@H]2CCCN2C(=O)[C@H](NC(=O)[C@@H](NC(=O)[C@@H](NC(=O)[C@H](NC(=O)CCCCCCC)C(C)C)[C@@H](C)O)C(C)C)C(C)C)[C@@H](C)CC)[C@@H](C)OC(=O)[C@H](C(C)C)NC1=O [Compound 18, [Oct^14]-KF]", 121),
    ("C/C=C1\\NC(=O)[C@H](Cc2ccccc2)NC(=O)[C@@H](C(C)C)NC(=O)[C@@H]([C@@H](C)CC)NC(=O)[C@H](NC(=O)[C@H](NC(=O)[C@H](CCCN)NC(=O)[C@H]2CCCN2C(=O)[C@H](NC(=O)[C@@H](NC(=O)[C@@H](NC(=O)[C@H](NC(=O)CCCCCCCCCCCCCCCCCCC)C(C)C)[C@@H](C)O)C(C)C)C(C)C)[C@@H](C)CC)[C@@H](C)OC(=O)[C@H](C(C)C)NC1=O [Compound 13, [Icos^14]-KF]", 861),
    ("C/C=C1\\NC(=O)[C@H](Cc2ccccc2)NC(=O)[C@@H](C(C)C)NC(=O)[C@@H]([C@@H](C)CC)NC(=O)[C@H](NC(=O)[C@H](NC(=O)[C@H](CCCN)NC(=O)[C@H]2CCCN2C(=O)[C@H](NC(=O)[C@@H](NC(=O)[C@@H](NC(=O)[C@H](NC(=O)CCCC(C)C)C(C)C)[C@@H](C)O)C(C)C)C(C)C)[C@@H](C)CC)[C@H](C)OC(=O)[C@H](C(C)C)NC1=O [Compound 2, [D-Thr^6]-KF]", 4470),
    ("C/C=C1\\NC(=O)[C@H](Cc2ccccc2)NC(=O)[C@@H](C(C)C)NC(=O)[C@@H]([C@@H](C)CC)NC(=O)[C@H](NC(=O)[C@H](NC(=O)[C@H](CCCN)NC(=O)[C@H]2CCCN2C(=O)[C@H](NC(=O)[C@H](NC(=O)[C@@H](NC(=O)[C@H](NC(=O)CCCC(C)C)C(C)C)[C@@H](C)O)C(C)C)C(C)C)[C@@H](C)CC)[C@@H](C)OC(=O)[C@H](C(C)C)NC1=O [Compound 46, [D-Val^11]-KF]", 1350),
]

Next:
stdin: Give SK-BR-3 GI50 for the following compound: C/C=C1\NC(=O)[C@H](Cc2ccccc2)NC(=O)[C@@H](C(C)C)NC(=O)[C@@H]([C@@H](C)CC)NC(=O)[C@H](NC(=O)[C@H](NC(=O)[C@H](CCCN)NC(=O)[C@H]2CCCN2C(=O)[C@H](NC(=O)[C@H](CC(C)C)NC(=O)[C@@H](NC(=O)[C@H](NC(=O)CCCC(C)C)C(C)C)[C@@H](C)O)C(C)C)[C@@H](C)CC)[C@@H](C)OC(=O)[C@H](C(C)C)NC1=O [Compound 45, [Leu^11]-KF] ({Hexanoyl(5-Me)}-[dV]TL[dV][dP][Orn][d(aIle)][d(aThr)][d(aIle)][dV]F[Dhb]V; ester 8-C)
stdout: 163

----------
- System: LoVo
- TEST NAME: SRB colorimetric assay of cell growth and viability, LoVo
- Assay type: cell-based, human
- CONDITION: LOVO; 48 hours exposure
MEASUREMENT LABEL: GI50 (µM)
Entry rule: numbers only, all in µM.

A selection of reference data follows.
# COMPOUND, TARGET OR SYSTEM, RESULT
data = [
    ("C/C=C1\\NC(=O)[C@H](Cc2cccc(Cl)c2)NC(=O)[C@@H](C(C)C)NC(=O)[C@@H]([C@@H](C)CC)NC(=O)[C@H](NC(=O)[C@H](NC(=O)[C@H](CCCN)NC(=O)[C@H]2CCCN2C(=O)[C@H](NC(=O)[C@@H](NC(=O)[C@@H](NC(=O)[C@H](NC(=O)CCCC(C)C)C(C)C)[C@@H](C)O)C(C)C)C(C)C)[C@@H](C)CC)[C@@H](C)OC(=O)[C@H](C(C)C)NC1=O [Compound 82, [Phe(3-Cl)^3]-KF]", "LoVo", 0.0406),
    ("C/C=C1\\NC(=O)[C@H](Cc2ccccc2)NC(=O)[C@@H](C(C)C)NC(=O)[C@@H]([C@@H](C)CC)NC(=O)[C@H](NC(=O)[C@H](NC(=O)[C@H](CCCNC(=O)CCCC[C@@H]2SC[C@@H]3NC(=O)N[C@@H]32)NC(=O)[C@H]2CCCN2C(=O)[C@H](NC(=O)[C@@H](NC(=O)[C@@H](NC(=O)[C@H](NC(=O)CCCC(C)C)C(C)C)[C@@H](C)O)C(C)C)C(C)C)[C@@H](C)CC)[C@@H](C)OC(=O)[C@H](C(C)C)NC1=O [Compound 99, [Orn(Biot)^8]-Kahalalide F]", "LoVo", 0.129),
]

Next:
stdin: Please look at this compound and report its GI50: C/C=C1\NC(=O)[C@H](Cc2ccccc2)NC(=O)[C@@H](C(C)C)NC(=O)[C@@H]([C@@H](C)CC)NC(=O)[C@H](NC(=O)[C@H](NC(=O)[C@H](CCCN)NC(=O)[C@H]2CCCCN2C(=O)[C@H](NC(=O)[C@@H](NC(=O)[C@@H](NC(=O)[C@H](NC(=O)CC[C@@H](C)CC)C(C)C)[C@@H](C)O)C(C)C)C(C)C)[C@@H](C)CC)[C@@H](C)OC(=O)[C@H](C(C)C)NC1=O [Compound 60, [D-Pip^9, (4S)-MeHex^14]-KF]
stdout: 1.03

The reported numbers originate from patent US20070117743A1.
